target: hCA II (Homo sapiens, UniProt P00918); assay: Carbonic anhydrase inhibition, colorimetric method (BioVision CA Inhibitor Screening Kit)
pKi: −log10 of the molar value.

{"molecule": "Nc1c(/N=C/c2cc3ccccc3[nH]c2=O)c(=O)[nH]c(=O)n1Cc1ccccc1 [Compound 10b]", "pKi": 6.20}
{"molecule": "COc1ccc2[nH]c(=O)c(/C=N/c3c(N)n(C)c(=O)[nH]c3=O)cc2c1 [Compound 10k]", "pKi": 5.44}
{"molecule": "COc1ccc2[nH]c(=O)c(/C=N/c3c(N)[nH]c(=O)[nH]c3=O)cc2c1 [Compound 10h]", "pKi": 5.60}
{"molecule": "CCn1c(N)c(/N=C/c2cc3cc(OC)ccc3[nH]c2=O)c(=O)[nH]c1=O [Compound 10j]", "pKi": 5.84}
{"molecule": "Cn1c(N)c(/N=C/c2cc3ccccc3[nH]c2=O)c(=O)[nH]c1=S [Compound 10e]", "pKi": 6.17}
{"molecule": "Nc1[nH]c(=O)[nH]c(=O)c1/N=C/c1cc2ccccc2[nH]c1=O [Compound 10a]", "pKi": 6.54}
{"molecule": "CCn1c(N)c(/N=C/c2cc3ccccc3[nH]c2=O)c(=O)[nH]c1=O [Compound 10c]", "pKi": 6.43}
{"molecule": "COc1ccc2[nH]c(=O)c(/C=N/c3c(N)n(Cc4ccccc4)c(=O)[nH]c3=O)cc2c1 [Compound 10i]", "pKi": 6.23}
